Cited source: ChEMBL document CHEMBL5335785

target: Adenosine receptor A1 (Homo sapiens); assay: Antagonist activity at human A1R expressed in Flp-In-CHO cells assessed as NECA-mediated reduction in forskolin-stimulated cAMP accumulation incubated for 30 to 60 mins followed by forskolin/NECA addition measured after 30 mins by LANCE cAMP assay (reference value: 8.74 +/- 0.08)
Sequence (P30542 whole entry): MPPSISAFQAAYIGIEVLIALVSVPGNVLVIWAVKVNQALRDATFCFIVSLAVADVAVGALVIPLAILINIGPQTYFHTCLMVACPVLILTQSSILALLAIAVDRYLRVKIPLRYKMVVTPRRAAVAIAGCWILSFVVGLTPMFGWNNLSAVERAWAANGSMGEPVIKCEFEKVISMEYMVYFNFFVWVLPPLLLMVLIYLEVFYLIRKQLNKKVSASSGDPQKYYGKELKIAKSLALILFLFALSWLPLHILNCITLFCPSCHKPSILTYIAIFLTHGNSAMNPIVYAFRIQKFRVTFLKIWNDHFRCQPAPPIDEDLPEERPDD
METRIC: EC50 (nM)
Give the value, in units of nM, as a plain number.

{"MOLECULE": "COc1ccc(C(=O)Nc2nc(C)c3cc4c(cc3n2)OCO4)cc1", "METRIC": "EC50", "UNIT_NAME": "nM", "ASSAY_RESULT": 1.91}
{"MOLECULE": "O=C(Nc1nc(C2CC2)cs1)C1COc2ccccc2C1 (stereo not given)", "METRIC": "EC50", "UNIT_NAME": "nM", "ASSAY_RESULT": 3.24}
{"MOLECULE": "Cn1c(=O)c2[nH]c(N(CCO)CCO)nc2n(C)c1=O", "METRIC": "EC50", "UNIT_NAME": "nM", "ASSAY_RESULT": 17}

What measured EC50 goes with c1ccc(CNc2nc(N3CCCCC3)c3nccnc3n2)nc1 ? 2.51

What measured EC50 goes with O=C(Nc1nc2ccccc2s1)N(CCO)C1CC1 ? 3.63

What measured EC50 goes with COCC(O)CNc1ncc(C)c(-c2ncnn2C)n1 (stereo not given) ? 2.34

What measured EC50 goes with CC(=O)NC(CC(=O)Nc1nc(C(C)=O)cs1)c1ccc(C)cc1 (stereo not given) ? 2.57

What measured EC50 goes with O=C(Nc1noc(-c2ccccc2)n1)c1cccc(Cl)c1 ? 2.82

What measured EC50 goes with CCOc1nc(NC(CO)c2ccco2)ncc1Br (stereo not given) ? 14.8

What measured EC50 goes with CC(Sc1nnc(C(C)C)[nH]1)C(=O)c1ccccc1 (stereo not given) ? 3.31

----------
target: Adenosine receptor A1 (Homo sapiens); conditions: Flp-In-CHO, filed as antagonist, time 60-90 min
METRIC: pKb
# respond with the number and nothing more

What measured pKb goes with c1csc(-c2nc(NC3CCCCCC3)ncc2-c2ccncc2)c1 ? 8.1

What measured pKb goes with O=C(Nc1nc2c(s1)Cc1ccccc1-2)C12CC3CC(CC1C3)C2 ? 7.57

What measured pKb goes with O=C(Nc1nc2c(s1)Cc1ccccc1-2)C1CCCCCC1 ? 7.29

What measured pKb goes with CC(=O)N1CCC(Nc2ncc(-c3ccncc3)c(-c3cccs3)n2)CC1 ? 7.82

What measured pKb goes with CC(C)(CNc1ncc(-c2ccncc2)c(-c2cccs2)n1)C1CCC1 ? 7.15

What measured pKb goes with CC1(CNc2ncc(-c3ccncc3)c(-c3cccs3)n2)OCCO1 ? 6.38

What measured pKb goes with CC1(C(=O)Nc2nc3c(s2)Cc2ccccc2-3)CCCC1 ? 7.86

What measured pKb goes with Cc1cccc(C(=O)Nc2nc3c(s2)Cc2ccccc2-3)c1C ? 6.67

What measured pKb goes with C=C1CCC(C(=O)Nc2nc3c(s2)Cc2ccccc2-3)CC1 ? 7.7

What measured pKb goes with c1csc(-c2nc(NC3CCC4(CC3)OCCO4)ncc2-c2ccncc2)c1 ? 7.07

What measured pKb goes with CC1(C(=O)Nc2nc3c(s2)Cc2ccccc2-3)CCC(=O)CC1 ? 7.85

What measured pKb goes with COC1(OC)CC(C)(C(=O)Nc2nc3c(s2)Cc2ccccc2-3)C1 ? 6.7

What measured pKb goes with O=C(Nc1nc2c(s1)Cc1ccccc1-2)C1CCCCC1 ? 7.24
